Target: Proteasome subunit beta (Trypanosoma cruzi) (UniProt O96673)
Sequence (whole entry): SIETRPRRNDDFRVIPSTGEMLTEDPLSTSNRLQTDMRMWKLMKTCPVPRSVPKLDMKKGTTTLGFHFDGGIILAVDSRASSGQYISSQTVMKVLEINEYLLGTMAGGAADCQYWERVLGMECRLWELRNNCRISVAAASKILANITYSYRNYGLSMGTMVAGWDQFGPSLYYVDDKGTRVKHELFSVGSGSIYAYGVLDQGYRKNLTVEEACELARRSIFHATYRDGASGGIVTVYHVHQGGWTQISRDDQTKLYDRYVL
Experiment: Trypanosoma cruzi proteasome chymotrypsin-like activity (TcProtChymo) assay.
Format: functional
Parameters: scale not given: in the data most compounds retested in dose-response had high values
Details: 9.37 µM

compound	Percent Effect
CC(C)(N)CN1CCC(c2nnc(CN3CCCC3)n2C2CC2)CC1	15.5%
c1cncc(C2COC3(CCN(CC4CC4)CC3)C2)c1 (configuration not stated)	12.9%
CCCc1cc(C(=O)N2CCCC(n3ccnc3C)C2)[nH]n1 (configuration not stated)	-7.94%
c1ccc2oc(N3CCCCC3Cn3cncn3)nc2c1 (configuration not stated)	2.69%
Cc1ccccc1N1CC2(CCN(S(=O)(=O)C3CC3)C2)CC1=O (configuration not stated)	17.4%
CCOCC1CN(Cc2ccc(OC)cc2)Cc2nn(C)cc21 (configuration not stated)	9.62%
O=C(CN1CC(n2cccn2)C1)NCCCc1ccccc1	-0.179%
CCCc1cc(=O)n(CC(N)=O)c(-n2nc(C)cc2C)n1	10.1%
O=C(O)[C@]12CCCN(Cc3ccncc3)[C@@H]1CCN(c1cnccn1)C2	21.6%
COC(=O)COc1nc(CC(C)C)c2c(c1C#N)CCCC2	10.6%
CCCC(Nc1c(C#N)c(=O)n(C)c(=O)n1C)c1ccc(F)cc1F (configuration not stated)	0.573%
CN(C)C(=O)N1C[C@@H]2CC[C@H](C1)N(C(=O)CCCn1cncn1)C2	19%
Cc1nc(C)n(CC2CN(Cc3cccc(C#N)c3)CCO2)n1 (configuration not stated)	14.6%
Cc1cnn(CC2CCCCN2C(=O)c2cc(C(N)=O)cs2)c1 (configuration not stated)	8.4%
CCc1ccccc1CN1CC[C@@H](NC(=O)c2cccnc2)[C@H](O)C1	12.8%
COC(=O)CC(c1cnn(C)c1)c1oc(C)cc(=O)c1O (configuration not stated)	6.85%
NC(=O)CN1CCC(NC(=O)Nc2nccs2)CC1	13.1%
COCCOc1cccc(C(=O)N2CCCC(n3ccnc3C)C2)c1 (configuration not stated)	0.877%
Cc1ccc2oc(C(=O)N3CCC(C(=O)N4CCCC4)CC3)cc2n1	-0.768%
CN(C)CCN1CCCC12CCN(C(=O)c1cnccn1)CC2	3.69%
CCOCC1CN(C(=O)N(C)C)Cc2nn(C)cc21 (configuration not stated)	8.03%
Cc1cc(NC(=O)CN2CCOC(Cn3cccn3)C2)n(C)n1 (configuration not stated)	-1.86%
COC(=O)c1cc(OCC2CCC2)cc(C(=O)N[C@H]2CC[C@H](O)CC2)c1	2.66%
CC(=O)N1CCC2(CCN(C(=O)c3ccc(Cl)c(C(F)(F)F)c3)CC2)C1	7.5%
Cn1nnc2c1CCN(Cc1nccs1)C2COCc1ccccc1 (configuration not stated)	-8.9%
CCC(=O)N1CCN(C(=O)CCn2cccn2)CC1	8.62%
Cc1cnn(CCC(=O)N2CCN(c3ncccc3Cl)CC2)c1	10.3%
CCc1nc(CN2CCCN(C(=O)c3c(C)noc3C)CC2)cs1	8.11%
Cc1cc(CN(C)C(=O)NCC(C)N2CCc3ccccc32)no1 (configuration not stated)	-2.46%
COCCN1C(=O)C[C@@H]2[C@H]1CCN2C(=O)COc1ccccc1	15.6%
CS(=O)(=O)c1ccc(NC(=O)NCc2ccc3c(c2)CCC3)cn1	-6.06%
CC(=O)NC1CCCN(C(=O)Nc2cnc3c(cnn3C(C)C)c2)C1 (configuration not stated)	12.2%
CN(Cc1cccc(F)c1)C(=O)CN1CCCCC1Cn1cncn1 (configuration not stated)	9.32%
CC(C)NC(=O)N1CCN(C(=O)N(C)C)CC2(CC(=O)N(C)C2)C1 (configuration not stated)	18.5%
CS(=O)(=O)N1Cc2ccccc2C2(CCN(C(=O)c3ccno3)CC2)C1	18.4%
Cc1ccc(-c2nnc(CNCCn3cc(C)cn3)o2)cc1	6.67%
O=C1CO[C@@H]2CN(CC3CCOCC3)C[C@H]2N1CC1CC1	20.1%
O=C(O)c1cc(S(=O)(=O)Nc2cc(F)ccc2F)cc2c1OCCO2	4.65%
CC(C)(C)c1nc(CN(Cc2cccs2)C2CCS(=O)(=O)C2)no1 (configuration not stated)	5.67%
Cc1[nH]c2ccccc2c1-c1ccnc(NCCN2CCOCC2)n1	14.8%
CC(O)CN1CCN(C(=O)CN(C)c2ccc(Cl)cn2)CC1 (configuration not stated)	14.8%
Cc1nc(CN2CCC3(CC2)NC(=O)CC3c2ccccc2)cs1 (configuration not stated)	9.19%
CC(Nc1cccc(CN2CCOC2=O)c1)C(=O)N1CCNC1=O (configuration not stated)	2.3%
Fc1ccc(CN2CCCC(Cn3cncn3)C2)c2ncccc12 (configuration not stated)	12.2%
CC(C)c1nnc2n1CCN(C(=O)c1ccnc(N(C)C)c1)C2	16.9%
O=C(c1cccc2c1OCO2)N1CCCC1c1noc(C2CC2)n1 (configuration not stated)	-2.38%
CNC(=O)CN1CCCC12CCN(C(=O)c1ccsc1)CC2	5.06%
